# System: HCT-116
# protocol: NCI tumour cell line growth inhibition, 48 h
Activity calls are given as the source filed them. No stated cut-off is given here; in the data, active = GI50 up to about 1.1 µM and inactive = higher.
test.readout: GI50

Look over these answered cases.
>>> experimental_result("O=C(c1ccco1)N(C(=S)N1CCN(c2ccccn2)CC1)C1CCCCC1")
"> 100 µM (inactive)"
>>> experimental_result("CNC(=O)N(CCCCC(NC(C)=O)C(=O)NCc1ccccc1)Cc1ccccc1 (configuration not stated)")
"> 100 µM (inactive)"
>>> experimental_result("COc1cc(C=O)c(-c2cc(OC)c(OC)cc2C=O)cc1OC")
"70.3 µM (inactive)"

Hello, I would appreciate it if you could give GI50 for each entry below.
1. Cc1oc2c(cc(O)c3ccccc32)c2cccc1-2
2. COc1ccc(/C=N/NS(=O)(=O)c2ccc(/C=C3\NC(=O)NC3=O)cc2)cc1
3. CC(=O)CCNc1ccc(-c2cc(-c3ccc(N(C)C)cc3)nc3ccc4ccccc4c23)cc1
4. Cc1ccc2c(c1)C(=O)C(Cc1ccccc1C(=O)O)C2 (configuration not stated)

["> 100 µM (inactive)", "> 100 µM (inactive)", "18.5 µM (inactive)", "> 100 µM (inactive)"]

Hello, I would appreciate it if you could give GI50 for each entry below.
1. CC(Cc1ccccc1)NC1=NCCO1 (configuration not stated)
2. C[C@]12CC[C@H]3[C@@H](CC=C4C[C@@H](N5CCCC5)CC[C@@]43C)[C@@H]1C/C(=C\c1ccc([N+](=O)[O-])cc1)[C@@H]2O

18 µM (inactive)
16.3 µM (inactive)

Hello, I would appreciate it if you could give GI50 for each entry below.
1. CC(C)=CCNc1nc(Cl)nc2[nH]cnc12
2. C=C1C(=O)O[C@@H]2/C=C(/C)[C@@H](OC(C)=O)C/C=C(\C)C(O)[C@@H](OC(=O)/C(C)=C\C)C12 (some centres not stated)
3. COc1ccc(/N=C2\C(=N/c3ccc(OC)cc3)N(S(=O)(=O)c3ccccc3)C(=S)N2c2ccc(OC)cc2)cc1

1. 24.7 µM (inactive)
2. 16.3 µM (inactive)
3. > 100 µM (inactive)
